experimental.target: DNA
protocol.notes: Binding affinity to 5'-6FAM-tagged 30-mer duplex DNA (22 AT bp) (unknown origin) assessed as dissociation constant for complound-DNA complex by fluorescence polarization assay
Format: nucleic-acid assay
readout: Kd (µM)

• CC(=O)c1ccc2c(c1)c1cc(C(C)=O)ccc1n2CCNC(C)C = 34

----------
experimental.target: DNA (cytosine-5)-methyltransferase 3A (Mus musculus)
protocol.notes: Inhibition of murine DNMT3A catalytic domain-mediated DNA methylation using 5'-6FAM-tagged 30-mer duplex DNA (22 AT bp) as substrate preincubated for 30 mins followed by enzyme addition
readout: IC50 (µM)

• CC(=O)c1ccc2c(c1)c1cc(C(C)=O)ccc1n2CCNC(C)C = 5
